tested on: UO-31 renal; assay: NCI tumour cell line growth inhibition, 48 h
# GI50 per entry
endpoint_name: GI50

compound	value_measured
Cc1ccc(NS(=O)(=O)c2ccc(-c3cnc(C4CC4)o3)cc2)cc1C	0.839 µM
Cc1nn(-c2ccccc2)c(-n2ccnc2)c1/C=N/Nc1nc(-c2ccc(Cl)c(Cl)c2)cs1	2.3 µM
C=C(C)[C@@H]1C/C=C(\COC(=O)[C@H](OC(C)=O)C(NC(=O)c2ccccc2)c2ccccc2)CC[C@H]2O[C@]2(C)CC/C=C(\C)CC1 (some centres undefined)	20.6 µM
CCN(CC)CCCN1C(=O)c2c(c(C)c3c(oc4ccc(O)cc43)c2C)C1=O	1.58 µM
